EXPERIMENTAL_TARGET: HMGB1 (Homo sapiens)
Sequence (P09429 whole entry, species assumed): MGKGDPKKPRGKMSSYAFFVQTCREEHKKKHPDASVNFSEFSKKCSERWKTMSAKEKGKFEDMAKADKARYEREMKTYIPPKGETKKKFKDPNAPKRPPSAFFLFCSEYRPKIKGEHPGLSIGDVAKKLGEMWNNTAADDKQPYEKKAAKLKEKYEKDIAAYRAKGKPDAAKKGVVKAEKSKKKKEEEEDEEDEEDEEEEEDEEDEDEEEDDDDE
PROTOCOL_SUMMARY: Biolayer interferometry (BLI) binding of DNA to HMGB1 coupled to a biolayer sensor
PARTICULARS: HMGB1 amide-coupled to biolayer sensor; + CP = with cisplatin; read-out: Affinity to HMGB1
MEASURED_ENDPOINT: Kd (nM)

1. 5′-CCTCTCTGGACCTTCC*T*T*T*T*GGAAGGTCCAGAGA*G*G [Oligo 1]	6.6
2. 5′-CTGGACCTTCC*T*T*T*T*GGAAGGTCC*A*G [Oligo 2]	33
3. 5′-cTC CGA CGc tCA aTG cTG GTA CGG Tat CCG TgT TAG-3′ (CTCCGACGCTCAATGCTGGTACGGTATCCGTGTTAG; chemistry not given here) [Scrambled 1, scrambled hairpin oligonucleotide used as a control]	51
